# Test system: NCI/ADR-RES
# assaySummary: NCI tumour cell line growth inhibition, 48 h
Active and inactive are the calls of the source. Cut-off read from the data, not from the text of the source: active = GI50 up to about 1.1 µM and inactive = higher.
Outcome codes: true for active, false for inactive

{"compound": "O=C1/C(=C/c2ccc(Cl)cc2)NC(=S)N1CN1CCCCC1", "measuredOn": "NCI/ADR-RES", "cat": "false"}
{"compound": "COC(=O)CN1C(=O)C2(C(=O)OC)OC1(c1ccc([N+](=O)[O-])cc1)C1C(=O)N(c3ccccc3)C(=O)C12 (stereo unspecified)", "measuredOn": "NCI/ADR-RES", "cat": "false"}
{"compound": "Cn1c(=O)c2c(no[n+]2[O-])c2ccccc21", "measuredOn": "NCI/ADR-RES", "cat": "false"}
{"compound": "Oc1cc(Br)cc2cc(Br)cnc12", "measuredOn": "NCI/ADR-RES", "cat": "false"}
{"compound": "COC(=O)C1=C(C)NC2(C)OC(C)(O)C(C(C)=O)C12C(C)=O (stereo unspecified)", "measuredOn": "NCI/ADR-RES", "cat": "false"}
{"compound": "Oc1cccc2cc(Br)cnc12", "measuredOn": "NCI/ADR-RES", "cat": "false"}
{"compound": "CN(CCO)CCC1COc2ccccc2O1 (stereo unspecified)", "measuredOn": "NCI/ADR-RES", "cat": "false"}
{"compound": "O=c1c(Cc2cccc(Cc3c(O)oc4ccccc4c3=O)c2)c(O)oc2ccccc12", "measuredOn": "NCI/ADR-RES", "cat": "false"}
{"compound": "O=c1c2cc(-c3ccccc3)cnc2sn1-c1ccc([N+](=O)[O-])cc1", "measuredOn": "NCI/ADR-RES", "cat": "false"}
{"compound": "N#Cc1nc(CCc2nc(C#N)c(N)o2)oc1N", "measuredOn": "NCI/ADR-RES", "cat": "false"}
{"compound": "CC(=O)Nc1ccc(C(=O)NN2C(=O)CSC2c2ccc([N+](=O)[O-])cc2)cc1 (stereo unspecified)", "measuredOn": "NCI/ADR-RES", "cat": "false"}
{"compound": "NC(CCC(=O)NC(CSC(=O)N(O)c1ccc(Br)cc1)C(=O)NCC(=O)O)C(=O)O (stereo unspecified)", "measuredOn": "NCI/ADR-RES", "cat": "false"}
{"compound": "CC(=O)O[C@H]1[C@@H](OC2CCCC2(c2ccccc2)c2ccccc2)O[N+]([O-])=C[C@@]12COCc1cc3c(cc12)OCO3 (stereo partly specified)", "measuredOn": "NCI/ADR-RES", "cat": "false"}
{"compound": "CC(C)OC(=O)c1ccc(CCC2=CC(=O)C=CC2=O)cc1", "measuredOn": "NCI/ADR-RES", "cat": "false"}
{"compound": "CCN(CC)CCCNc1ccc([N+](=O)[O-])c2nc3ccccc3c(N)c12", "measuredOn": "NCI/ADR-RES", "cat": "true"}
{"compound": "c1ccc(CC(Nc2cccnc2)c2ccccc2)cc1 (stereo unspecified)", "measuredOn": "NCI/ADR-RES", "cat": "false"}
{"compound": "C[C@]12CC[C@H](O)CC1=CC[C@@H]1[C@@H]2CC[C@]2(C)/C(=N/OCCN3CCCC3)CC[C@@H]12", "measuredOn": "NCI/ADR-RES", "cat": "false"}
{"compound": "O=C(O)CCCCCCCCC(=O)O", "measuredOn": "NCI/ADR-RES", "cat": "false"}
{"compound": "N#CCN1CCCN(CC#N)CCN(CC#N)CCCN(CC#N)CC1", "measuredOn": "NCI/ADR-RES", "cat": "false"}
{"compound": "CCOP1(=O)C=C(Sc2ccc([N+](=O)[O-])cc2[N+](=O)[O-])C(C)(C)O1 (stereo unspecified)", "measuredOn": "NCI/ADR-RES", "cat": "false"}
{"compound": "CC1=C2C(=C[C@H]3[C@]4(C)CCCC(C)(C)[C@H]4CC[C@]34O[C@H]24)OC1=O", "measuredOn": "NCI/ADR-RES", "cat": "false"}

###

GI50 reference
# Test system: HCC 2998
# assaySummary: NCI tumour cell line growth inhibition, 48 h
Activity calls are given as the source filed them. Cut-off read from the data, not from the text of the source: active = GI50 up to about 1.1 µM and inactive = higher.

{"compound": "CN(CCC(=O)N1CC(CCl)c2ccc([N+](=O)[O-])cc21)CCC(=O)N1CC(CCl)c2ccc([N+](=O)[O-])cc21 (stereo not given)", "GI50": "5.79 µM (inactive)"}
{"compound": "O=C1c2ccc3c4ccc5c6c(ccc(c7ccc(c2c37)C(=O)N1CCN1CCCCC1)c64)C(=O)N(CCN1CCCCC1)C5=O", "GI50": "> 100 µM (inactive)"}
{"compound": "CC(=O)Oc1ccn2nc(C)c(Br)c2c1", "GI50": "> 100 µM (inactive)"}
{"compound": "CN(CCO)CCC1COc2ccccc2O1 (stereo not given)", "GI50": "> 10 µM (inactive)"}
{"compound": "C(=C\\c1cccc(/C=C/c2ccccn2)n1)/c1ccccn1", "GI50": "79.6 µM (inactive)"}
{"compound": "NC(CCSCC(F)F)C(=O)O (stereo not given)", "GI50": "> 100 µM (inactive)"}
{"compound": "COc1cc2c(cc1OC)-c1c(cc(OC)c(OC)c1OC)C2=O", "GI50": "> 100 µM (inactive)"}
{"compound": "CC(=O)OCC(OC(C)=O)C(OC(C)=O)C(OC(C)=O)C(/C=N\\Nc1nc2ccccc2c(=O)[nH]1)=N/Nc1nc2ccccc2c(=O)[nH]1 (stereo not given)", "GI50": "85.5 µM (inactive)"}
{"compound": "Cc1cc(Cl)ccc1N1C(=O)C(=O)C(c2nc3ccccc3o2)C(=O)C1=O", "GI50": "> 100 µM (inactive)"}
{"compound": "O=C(c1ccccc1)c1ccc2nc3n(c2c1)C(c1c(F)cccc1F)SC3 (stereo not given)", "GI50": "5.25 µM (inactive)"}

###

# System: LOX IMVI
# assaySummary: NCI tumour cell line growth inhibition, 48 h
Activity calls are given as the source filed them. No stated cut-off is given here; in the data, active = GI50 up to about 1.1 µM and inactive = higher.

{"compound": "COc1ccc(O)c2c(=O)ccccc12", "GI50": "> 100 µM (inactive)"}
{"compound": "c1cc2c(cc1NC1=NCCO1)CCC2", "GI50": "> 10 µM (inactive)"}
{"compound": "N#CSCC1COc2ccccc2O1 (stereo not drawn)", "GI50": "3.78 µM (inactive)"}
{"compound": "NCCNc1nc(N2CCCC2)c2nc(Cl)c(NCc3ccccc3)nc2n1", "GI50": "1.56 µM (inactive)"}
{"compound": "CC1=CP(=O)(c2ccccc2)C=C(C)C1=C(Cl)Cl (stereo not drawn)", "GI50": "4.05 µM (inactive)"}
{"compound": "CC(=O)/N=C1/N(/C=C2\\C(=O)Oc3ccccc3C2=O)C(=O)/C(=C/c2ccc(Cl)cc2Cl)N1C", "GI50": "62.2 µM (inactive)"}
{"compound": "CN(CCO)CCC1COc2ccccc2O1 (stereo not drawn)", "GI50": "> 10 µM (inactive)"}
{"compound": "O=C(O)c1ccc(Nc2nc3cc(C(F)(F)F)ccc3nc2-c2ccccc2)cc1", "GI50": "15.2 µM (inactive)"}
{"compound": "CC1CCC2(C(=O)O)CCC3(C)C(=CCC4C5(C)CC(O)C(O)C(C)(CO)C5C(O)CC43C)C2C1C (stereo not drawn)", "GI50": "20.5 µM (inactive)"}
{"compound": "CCOP(=O)(OCC)/C(F)=C/c1ccc(F)cc1", "GI50": "> 100 µM (inactive)"}
{"compound": "CCOC(=O)c1cc(C)nc2c1c(=O)n(-c1ccccc1)c(=O)n2CCCCN1CCN(c2ncccn2)CC1", "GI50": "56.9 µM (inactive)"}
{"compound": "C=C1C2C[C@@H]3O[C@H]4C[C@H]5O[C@@]6(C[C@@H]7O[C@]8(C[C@H](C)[C@@H]9O[C@@H]%10CC(C=O)O[C@@H]%10C[C@@H]9O8)C[C@H](C)[C@@H]7O6)C[C@H]5O[C@H]4[C@H](C)[C@H]3OC(=O)C[C@H]3CC[C@@H]4OC5[C@H]6O[C@]7(CC[C@H]8CC(=C)[C@H](CC[C@@H](C[C@H]1C)O2)O8)CC6O[C@@H]5[C@@H](O7)[C@H]4O3 (stereo partly drawn)", "GI50": "< 0.0001 µM (active)"}
{"compound": "CC(C)[Si](OCC1CC(C[C@H]2CC(C[C@H]3C[C@@H](CO[Si](C(C)C)(C(C)C)C(C)C)OC(C)(C)O3)OC(C)(C)O2)OC(C)(C)O1)(C(C)C)C(C)C (stereo partly drawn)", "GI50": "> 100 µM (inactive)"}
{"compound": "Cc1nnc2sc(N/N=C/c3ccccc3)nn12", "GI50": "> 100 µM (inactive)"}
{"compound": "Cn1c2ccccc2c2ccc3c(c21)C(=O)C=CC3=O", "GI50": "4.18 µM (inactive)"}
{"compound": "N=C(N)N/N=C\\c1c(-c2cccc([N+](=O)[O-])c2)nc2sccn12", "GI50": "3.89 µM (inactive)"}
{"compound": "COC(=O)C(=O)C(C(=O)C(=O)Nc1ccc(C)cc1C)c1nc2ccc(Cl)cc2nc1O (stereo not drawn)", "GI50": "> 100 µM (inactive)"}
{"compound": "Cc1ccc(C(=O)c2[nH]c(Nc3ccc(Cl)cc3)c(C(=S)Nc3ccccc3)c2N)cc1", "GI50": "3.91 µM (inactive)"}
{"compound": "O=C1OC(c2ccccc2)C2CC3CC4(CCC3CN12)OCCO4 (stereo not drawn)", "GI50": "> 100 µM (inactive)"}
{"compound": "CC(=O)Nc1ccc(/C=C/C(=O)N2CC(CCl)c3c2cc(N)c2ccccc32)cc1 (stereo not drawn)", "GI50": "< 0.005 µM (active)"}
{"compound": "O=C1c2ccc3c4ccc5c6c(ccc(c7ccc(c2c37)C(=O)N1CCN1CCCCC1)c64)C(=O)N(CCN1CCCCC1)C5=O", "GI50": "> 100 µM (inactive)"}
{"compound": "CC1=NN(c2nc(N)nc(CSc3nc4n(c(=S)n3)CCN4)n2)C(C)(C)C1", "GI50": "43.6 µM (inactive)"}
{"compound": "COc1ccc2c(c1)-c1c(c3ccccc3n1CCN1CCCCC1)CC2", "GI50": "16.3 µM (inactive)"}
{"compound": "Cc1nnc2cc(C(=O)O)c3ccccc3n2c1=O", "GI50": "> 10 µM (inactive)"}
{"compound": "COc1cccc2c(Nc3ccc(S(=O)(=O)N=C(N)N)cc3)c3ccc([N+](=O)[O-])cc3nc12", "GI50": "11.4 µM (inactive)"}
{"compound": "Cn1c(CCC#N)nc2ccc(Br)cc2c1=O", "GI50": "> 100 µM (inactive)"}
{"compound": "Clc1cc2nc[nH]c2cc1Cl", "GI50": "> 100 µM (inactive)"}
{"compound": "CN1CCN(c2ccc3nc(C4=C(O)C(=O)c5c(nc(CCl)n5C)C4=O)[nH]c3n2)CC1", "GI50": "8.15 µM (inactive)"}
